Target: CDK9–cyclin T (Homo sapiens, UniProt P50750)
Construct: purchased Thermo Fisher
Sequence (P50750 whole entry): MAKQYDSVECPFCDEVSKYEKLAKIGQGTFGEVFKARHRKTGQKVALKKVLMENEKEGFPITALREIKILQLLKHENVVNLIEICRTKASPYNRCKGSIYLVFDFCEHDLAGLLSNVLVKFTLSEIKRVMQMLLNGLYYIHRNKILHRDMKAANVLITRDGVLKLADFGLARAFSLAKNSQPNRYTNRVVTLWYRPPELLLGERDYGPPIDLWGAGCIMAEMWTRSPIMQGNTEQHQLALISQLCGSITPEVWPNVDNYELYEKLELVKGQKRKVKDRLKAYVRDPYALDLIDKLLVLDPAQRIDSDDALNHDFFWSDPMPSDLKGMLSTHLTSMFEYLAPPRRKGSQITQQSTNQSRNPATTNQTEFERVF
Sequence (O60563 whole entry partner): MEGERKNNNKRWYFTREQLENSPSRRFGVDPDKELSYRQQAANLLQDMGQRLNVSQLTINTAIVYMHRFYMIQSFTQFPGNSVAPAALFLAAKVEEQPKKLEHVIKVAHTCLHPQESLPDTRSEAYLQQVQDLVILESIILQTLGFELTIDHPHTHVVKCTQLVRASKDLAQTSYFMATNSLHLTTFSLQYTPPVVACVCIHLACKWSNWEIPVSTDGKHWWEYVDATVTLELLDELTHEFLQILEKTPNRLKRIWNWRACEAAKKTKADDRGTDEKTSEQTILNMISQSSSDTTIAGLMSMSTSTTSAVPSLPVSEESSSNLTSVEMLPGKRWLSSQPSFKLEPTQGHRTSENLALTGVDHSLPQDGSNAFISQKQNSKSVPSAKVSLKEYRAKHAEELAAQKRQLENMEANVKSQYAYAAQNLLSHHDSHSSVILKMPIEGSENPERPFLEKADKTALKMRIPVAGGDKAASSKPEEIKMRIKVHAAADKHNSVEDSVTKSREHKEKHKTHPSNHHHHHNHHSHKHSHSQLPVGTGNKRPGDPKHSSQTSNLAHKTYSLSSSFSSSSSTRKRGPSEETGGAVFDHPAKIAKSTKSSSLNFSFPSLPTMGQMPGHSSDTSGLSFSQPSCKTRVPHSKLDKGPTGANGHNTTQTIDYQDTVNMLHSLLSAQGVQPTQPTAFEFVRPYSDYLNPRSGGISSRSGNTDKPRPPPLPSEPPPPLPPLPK
Assay: Lanthascreen kinase binding assay, CDK9
Conditions: Lanthascreen; read-out: CDK9 inhibition
Method: Lanthascreen experiments were performed using commercially available reagents (Thermo Fisher) and according to the manufacturer’s instructions.
pIC50: −log10 of the molar value.
METRIC NAME: pIC50

[[record]]
mol_smiles = "Cc1cccc(Nc2nc(CC(=O)Nc3ncc(C)s3)cs2)n1"
value_reported = "< 5.00"


----------
In this section, each of the compounds is paired with its reported TR-FRET signal.
molecular target: CDK12–cyclin K and DDB1 (Homo sapiens, UniProt Q16531+Q9NYV4, K965R); construct: His6–CDK12 (a.a. 713–1,052); full-length or beta-propeller B domain deletion (ΔBPB: a.a. 396–705 deleted) constructs of His6–DDB1ΔBPB, StrepII–Avi–DDB1, or His6–Spy–DDB1; made in house; host or cells: Trichoplusia ni High Five insect cells (baculovirus); experiment: TR-FRET Kd determination, quadratic fit, 50 nM or 10 nM CDK12–cyclin K; type: binding; conditions: 50 nM CDK12-cyclin K; compound 62.6399 nM
Sequence (Q9NYV4 713-1052 K965R): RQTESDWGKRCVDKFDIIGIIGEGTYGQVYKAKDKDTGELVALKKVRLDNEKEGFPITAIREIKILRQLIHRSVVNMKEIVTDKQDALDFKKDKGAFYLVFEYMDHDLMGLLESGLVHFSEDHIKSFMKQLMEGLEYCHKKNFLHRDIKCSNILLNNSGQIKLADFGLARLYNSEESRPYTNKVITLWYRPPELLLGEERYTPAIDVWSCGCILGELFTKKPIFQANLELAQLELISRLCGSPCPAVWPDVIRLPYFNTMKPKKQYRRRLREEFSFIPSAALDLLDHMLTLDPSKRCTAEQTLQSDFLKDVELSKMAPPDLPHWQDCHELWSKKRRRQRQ
Sequence (O75909 1-267 partner): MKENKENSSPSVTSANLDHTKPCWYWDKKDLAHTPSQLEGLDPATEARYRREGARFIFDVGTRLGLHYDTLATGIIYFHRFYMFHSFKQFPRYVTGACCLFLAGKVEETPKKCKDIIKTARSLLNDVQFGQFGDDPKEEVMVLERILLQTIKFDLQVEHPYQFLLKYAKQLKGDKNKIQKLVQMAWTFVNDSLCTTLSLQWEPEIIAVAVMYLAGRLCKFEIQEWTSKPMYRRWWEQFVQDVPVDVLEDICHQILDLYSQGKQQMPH
Sequence (Q16531 whole entry): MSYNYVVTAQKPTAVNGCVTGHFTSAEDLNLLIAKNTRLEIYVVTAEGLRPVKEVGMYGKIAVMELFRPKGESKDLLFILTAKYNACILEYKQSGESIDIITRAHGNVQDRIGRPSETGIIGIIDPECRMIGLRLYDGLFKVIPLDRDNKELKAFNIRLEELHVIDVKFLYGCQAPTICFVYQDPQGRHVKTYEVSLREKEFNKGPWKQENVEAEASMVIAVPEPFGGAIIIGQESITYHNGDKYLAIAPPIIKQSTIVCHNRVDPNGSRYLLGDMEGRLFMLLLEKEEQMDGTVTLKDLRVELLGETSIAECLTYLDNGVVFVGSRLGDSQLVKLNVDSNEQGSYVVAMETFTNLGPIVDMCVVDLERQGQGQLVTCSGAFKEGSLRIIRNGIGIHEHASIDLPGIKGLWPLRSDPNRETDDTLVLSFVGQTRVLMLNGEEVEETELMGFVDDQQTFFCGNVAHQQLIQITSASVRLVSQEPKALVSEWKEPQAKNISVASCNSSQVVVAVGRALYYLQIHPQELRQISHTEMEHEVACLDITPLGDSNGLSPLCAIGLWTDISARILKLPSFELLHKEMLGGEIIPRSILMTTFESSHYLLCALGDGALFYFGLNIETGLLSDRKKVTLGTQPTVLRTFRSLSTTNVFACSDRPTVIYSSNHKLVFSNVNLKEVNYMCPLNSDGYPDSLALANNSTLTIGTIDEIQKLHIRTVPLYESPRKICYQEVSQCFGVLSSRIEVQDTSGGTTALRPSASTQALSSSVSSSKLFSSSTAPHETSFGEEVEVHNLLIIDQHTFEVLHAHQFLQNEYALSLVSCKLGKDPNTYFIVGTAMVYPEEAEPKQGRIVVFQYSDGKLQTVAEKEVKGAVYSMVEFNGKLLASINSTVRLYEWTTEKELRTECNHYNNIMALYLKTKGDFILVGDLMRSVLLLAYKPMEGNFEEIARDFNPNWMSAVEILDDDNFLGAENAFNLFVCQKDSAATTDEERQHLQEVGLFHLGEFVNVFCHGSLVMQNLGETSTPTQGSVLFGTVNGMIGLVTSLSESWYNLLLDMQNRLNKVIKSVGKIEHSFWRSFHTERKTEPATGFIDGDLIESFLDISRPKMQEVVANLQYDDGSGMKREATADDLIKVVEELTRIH
METRIC NAME: TR-FRET signal

[[record]]
compound = "Cc1cc2nc(CNc3nc(N4CCN(C)CC4)nc4c(Br)cnn34)[nH]c2cc1C [DS73, reference compound]"
metric_name = "TR-FRET signal"
value_reported = 2.967

[[record]]
compound = "CCC(CO)Nc1nc(NCc2ccc(-c3ccccc3)cc2)c2ncn(C(C)C)c2n1 (stereo not shown)"
metric_name = "TR-FRET signal"
value_reported = 2.089

[[record]]
compound = "CC[C@H](CO)Nc1nc(NCc2nc3cc(Cl)c(Cl)cc3[nH]2)c2ncn(C(C)C)c2n1"
metric_name = "TR-FRET signal"
value_reported = 3.258

[[record]]
compound = "CCC(CO)Nc1nc(NCc2ccc(-c3ccccn3)cc2)c2ncn(C(C)C)c2n1 (stereo not shown) [CR8, reference compound]"
metric_name = "TR-FRET signal"
value_reported = 2.31


----------
molecular target: CDK12–cyclin K and DDB1 (Homo sapiens, UniProt Q16531+Q9NYV4, K965R); construct: His6–CDK12 (a.a. 713–1,052); full-length or beta-propeller B domain deletion (ΔBPB: a.a. 396–705 deleted) constructs of His6–DDB1ΔBPB, StrepII–Avi–DDB1, or His6–Spy–DDB1; made in house; host or cells: Trichoplusia ni High Five insect cells (baculovirus); assay: TR-FRET ternary complex formation assay (compound titration); type: binding; settings: Supplementary Table 2; read-out: TR-FRET EC50 TR-FRET
METRIC NAME: EC50 (nM)

[[record]]
molecule = "CC[C@H](CO)Nc1nc(NCCCC2CCCCC2)c2ncn(C(C)C)c2n1 [DS32]"
metric_name = "EC50"
value_reported = 676

[[record]]
molecule = "CC[C@H](CO)Nc1nc(NCCC2CCCCCCC2)c2ncn(C(C)C)c2n1 [DS38]"
metric_name = "EC50"
value_reported = 5740

[[record]]
molecule = "CC[C@H](CO)Nc1nc(NCCCC2CCCC2)c2ncn(C(C)C)c2n1 [DS33]"
metric_name = "EC50"
value_reported = 1270

[[record]]
molecule = "CC[C@H](CO)Nc1nc(NCCCc2ccco2)c2ncn(C(C)C)c2n1 [DS34]"
metric_name = "EC50"
value_reported = 603

[[record]]
molecule = "CC[C@H](CO)Nc1nc(NCCCc2ccccc2)c2ncn(C(C)C)c2n1 [DS11]"
metric_name = "EC50"
value_reported = 56.8


----------
molecular target: CDK12–cyclin K and DDB1 (Homo sapiens, UniProt Q16531+Q9NYV4, K965R); construct: His6–CDK12 (a.a. 713–1,052); full-length or beta-propeller B domain deletion (ΔBPB: a.a. 396–705 deleted) constructs of His6–DDB1ΔBPB, StrepII–Avi–DDB1, or His6–Spy–DDB1; made in house; host or cells: Trichoplusia ni High Five insect cells (baculovirus); experiment: TR-FRET ternary complex formation assay (compound titration); type: binding; conditions: Supplementary Table 2; read-out: TR-FRET EC50 TR-FRET
Hi! Just check whether EC50 is below 300 nM. Below gives yes (1), equal or above gives no (0).

[[record]]
compound = "CC[C@H](CO)Nc1nc(NCCCCc2ccccc2)c2ncn(C(C)C)c2n1 [DS09]"
system_name = "CDK12–cyclin K and DDB1 (Homo sapiens, UniProt Q16531+Q9NYV4, K965R)"
classification = "no (0)"

[[record]]
compound = "CC[C@H](CO)Nc1nc(NCc2ccc(-c3ccc(C)s3)cc2)c2ncn(C(C)C)c2n1 [DS25]"
system_name = "CDK12–cyclin K and DDB1 (Homo sapiens, UniProt Q16531+Q9NYV4, K965R)"
classification = "yes (1)"

[[record]]
compound = "CC[C@H](CO)Nc1nc(NCCCCn2c(=O)oc3ccccc32)c2ncn(C(C)C)c2n1 [DS46]"
system_name = "CDK12–cyclin K and DDB1 (Homo sapiens, UniProt Q16531+Q9NYV4, K965R)"
classification = "no (0)"

[[record]]
compound = "CC[C@H](CO)Nc1nc(Nc2ccc(-c3ccccn3)cc2)c2ncn(C(C)C)c2n1 [DRF053, reference compound]"
system_name = "CDK12–cyclin K and DDB1 (Homo sapiens, UniProt Q16531+Q9NYV4, K965R)"
classification = "no (0)"

[[record]]
compound = "Cn1cc(-n2cnc3c(NCc4nc5ccccc5[nH]4)nc(N4CCOCC4)nc32)cn1 [DS55]"
system_name = "CDK12–cyclin K and DDB1 (Homo sapiens, UniProt Q16531+Q9NYV4, K965R)"
classification = "yes (1)"

[[record]]
compound = "CCCCc1ccc(CNc2nc(N[C@H](CC)CO)nc3c2ncn3C(C)C)cc1 [DS03]"
system_name = "CDK12–cyclin K and DDB1 (Homo sapiens, UniProt Q16531+Q9NYV4, K965R)"
classification = "yes (1)"

[[record]]
compound = "CC[C@H](CO)Nc1nc(NCCCCCCc2ccccc2)c2ncn(C(C)C)c2n1 [DS10]"
system_name = "CDK12–cyclin K and DDB1 (Homo sapiens, UniProt Q16531+Q9NYV4, K965R)"
classification = "no (0)"


----------
biological target: CDK12–cyclin K and DDB1 (Homo sapiens, UniProt Q16531+Q9NYV4, K965R); construct: His6–CDK12 (a.a. 713–1,052); full-length or beta-propeller B domain deletion (ΔBPB: a.a. 396–705 deleted) constructs of His6–DDB1ΔBPB, StrepII–Avi–DDB1, or His6–Spy–DDB1; made in house; host or cells: Trichoplusia ni High Five insect cells (baculovirus); test: TR-FRET Kd determination, quadratic fit, 50 nM or 10 nM CDK12–cyclin K; assay type: binding; settings: 50 nM CDK12-cyclin K; compound 30.96 nM
METRIC NAME: TR-FRET signal

[[record]]
compound = "CC[C@H](CO)Nc1nc(NCc2nc3cc(Cl)c(Cl)cc3[nH]2)c2ncn(C(C)C)c2n1"
value_reported = 3.053

[[record]]
compound = "CCC(CO)Nc1nc(NCc2ccc(-c3ccccn3)cc2)c2ncn(C(C)C)c2n1 (stereo not shown) [CR8, reference compound]"
value_reported = 1.3518

[[record]]
compound = "Cc1cc2nc(CNc3nc(N4CCN(C)CC4)nc4c(Br)cnn34)[nH]c2cc1C [DS73, reference compound]"
value_reported = 1.797

[[record]]
compound = "CCC(CO)Nc1nc(NCc2ccc(-c3ccccc3)cc2)c2ncn(C(C)C)c2n1 (stereo not shown)"
value_reported = 1.706


----------
target: CDK12–cyclin K and DDB1 (Homo sapiens, UniProt Q16531+Q9NYV4, K965R); construct: His6–CDK12 (a.a. 713–1,052); full-length or beta-propeller B domain deletion (ΔBPB: a.a. 396–705 deleted) constructs of His6–DDB1ΔBPB, StrepII–Avi–DDB1, or His6–Spy–DDB1; made in house; host or cells: Trichoplusia ni High Five insect cells (baculovirus); assay: TR-FRET Kd determination, quadratic fit, 50 nM or 10 nM CDK12–cyclin K; format: binding; settings: 10 nM CDK12-cyclin K; compound 0.468 nM
Here the recorded TR-FRET signal is given for each entry.
METRIC NAME: TR-FRET signal

[[record]]
compound = "CCC(CO)Nc1nc(NCc2ccc(-c3ccccn3)cc2)c2ncn(C(C)C)c2n1 (stereo not shown) [CR8, reference compound]"
value_reported = 0.1037

[[record]]
compound = "CC[C@H](CO)Nc1nc(NCc2nc3cc(Cl)c(Cl)cc3[nH]2)c2ncn(C(C)C)c2n1"
value_reported = 0.1296

[[record]]
compound = "Cc1cc2nc(CNc3nc(N4CCN(C)CC4)nc4c(Br)cnn34)[nH]c2cc1C [DS73, reference compound]"
value_reported = 0.1115

[[record]]
compound = "CCC(CO)Nc1nc(NCc2ccc(-c3ccccc3)cc2)c2ncn(C(C)C)c2n1 (stereo not shown)"
value_reported = 0.1087

